# MEASURED_TARGET: T1, rat calcitonin receptor (rat, UniProt P32214 25-516)
# T1 construct: whole, on cells; Used as membranes prepared from the transfected cells; also called rCTR; rat calcitonin (a) receptor
# T1 sequence (looked up): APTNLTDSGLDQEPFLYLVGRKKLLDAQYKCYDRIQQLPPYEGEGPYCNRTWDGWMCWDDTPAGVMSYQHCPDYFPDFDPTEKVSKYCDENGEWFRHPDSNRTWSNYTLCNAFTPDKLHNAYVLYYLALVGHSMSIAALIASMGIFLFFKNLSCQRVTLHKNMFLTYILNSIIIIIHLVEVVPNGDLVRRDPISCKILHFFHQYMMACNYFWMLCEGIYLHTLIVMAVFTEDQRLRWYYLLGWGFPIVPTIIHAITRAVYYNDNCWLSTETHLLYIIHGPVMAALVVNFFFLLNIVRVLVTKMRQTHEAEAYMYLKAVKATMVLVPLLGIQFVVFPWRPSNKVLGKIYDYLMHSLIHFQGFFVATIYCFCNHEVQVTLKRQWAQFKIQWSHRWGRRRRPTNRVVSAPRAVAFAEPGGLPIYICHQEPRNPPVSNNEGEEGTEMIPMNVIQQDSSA
# ASSAY_NAME: ratio IC50 rat calcitonin receptor / IC50 rat amylin receptor (Assays VIII and VI)
MEASURED_QUANTITY: Ratio rCT/rAmylin binding

See these solved cases before continuing.
BINDER	Ratio rCT/rAmylin binding
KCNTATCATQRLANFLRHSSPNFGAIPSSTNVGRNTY (C20 diacid-gGlu acylated on the alpha amino group of the N-terminal residue (Lys 1); disulfide Cys2-Cys7; C-terminal amide, Derivative of human amylin; also called compound 39) [N^α1-[(4S)-4-carboxy-4-(19-carboxynonadecanoylamino)butanoyl]-[Arg17,Pro21,Pro27,Arg34]-h-amylin]	54.5
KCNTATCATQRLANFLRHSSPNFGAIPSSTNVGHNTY (C20 diacid-gGlu acylated on the alpha amino group of the N-terminal residue (Lys 1); disulfide Cys2-Cys7; C-terminal amide, Derivative of human amylin; also called compound 40) [N^α1-[(4S)-4-carboxy-4-(19-carboxynonadecanoylamino)butanoyl]-[Arg17,Pro21,Pro27,His34]-h-amylin]	46.2
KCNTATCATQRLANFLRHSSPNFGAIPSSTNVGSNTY (C20 diacid-gGlu-2xOEG acylated on the alpha amino group of the N-terminal residue (Lys 1); disulfide Cys2-Cys7; C-terminal amide, Derivative of human amylin; also called compound 24)	116

-- ask Requested field: Ratio rCT/rAmylin binding. Item: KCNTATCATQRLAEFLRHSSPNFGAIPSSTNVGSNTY (C20 diacid-gGlu-2xOEG acylated on the alpha amino group of the N-terminal residue (Lys 1); disulfide Cys2-Cys7; C-terminal amide, Derivative of human amylin; also called compound 19)
-- reply 93.6

-- ask What about this binder? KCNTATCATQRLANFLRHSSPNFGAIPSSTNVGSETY (C20 diacid-gGlu acylated on the alpha amino group of the N-terminal residue (Lys 1); disulfide Cys2-Cys7; C-terminal amide, Derivative of human amylin; also called compound 23) [N^α1-[(4S)-4-carboxy-4-(19-carboxynonadecanoylamino)butanoyl]-[Arg17,Pro21,Pro27,Glu35]-h-amylin]
-- reply 71.3

-- ask What about this binder? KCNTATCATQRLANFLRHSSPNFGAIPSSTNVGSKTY (C20 diacid-gGlu acylated on the alpha amino group of the N-terminal residue (Lys 1); disulfide Cys2-Cys7; C-terminal amide, Derivative of human amylin; also called compound 34) [N^α1-[(4S)-4-carboxy-4-(19-carboxynonadecanoylamino)butanoyl]-[Arg17,Pro21,Pro27,Lys35]-h-amylin]
-- reply 52

Source listed as patent US20140087995A1.
